Hello, the source for this data is ChEMBL document CHEMBL4392876, in case you need it.

System: HepG2
Experiment: Protection against AfB1-induced toxicity in human HepG2 cells assessed as increase in live cell area at >0.5 uM measured after 48 hrs by calcein-AM/Hoechst 33342 staining based high-content imaging analysis relative to control
Format: functional
The source made the active and inactive calls. The calls are words filed in the database; no cut-off is given here.
Measured property: Activity

Structure notation	Observed value
CC(C)c1nc(CN(C)C(=O)N[C@H](C(=O)N[C@@H](Cc2ccccc2)C[C@H](O)[C@H](Cc2ccccc2)NC(=O)OCc2cncs2)C(C)C)cs1	inactive
COc1ccc(C(=O)NCc2cccnc2)c(O)c1	inactive
Cc1cc(O)cc2oc(=O)c3c(O)cc(O)cc3c12	inactive
COc1cc(OC)c2c(O)c3c(=O)cc(C)oc3cc2c1	inactive

----------
Tested on: HepG2
Experiment: Protection against AfB1-induced toxicity in human HepG2 cells assessed as live cell area at 0.5 uM measured after 48 hrs by calcein-AM/Hoechst 33342 staining based high-content imaging analysis relative to control
Assay type: functional
Listing of entries alongside the reported %max.
// units = %; emit number, no label

Here's what some known entries look like.
Structure notation	Value unit	%max
COc1cc(OC)c2c(O)c3c(=O)cc(C)oc3cc2c1	%	64.9
COc1ccc(C(=O)NCc2cccnc2)c(O)c1	%	33.5

Query: Dear colleague, please send me the reported %max for Cc1cc(O)cc2oc(=O)c3c(O)cc(O)cc3c12 when you can.
Reply: 15.2

Query: Dear colleague, please send me the reported %max for CC(C)c1nc(CN(C)C(=O)N[C@H](C(=O)N[C@@H](Cc2ccccc2)C[C@H](O)[C@H](Cc2ccccc2)NC(=O)OCc2cncs2)C(C)C)cs1 when you can.
Reply: 72

----------
System: HepG2
Assay: Toxicity in human HepG2 cells measured after 48 hrs by calcein-AM/Hoechst 33342 staining based high-content imaging analysis
Format: cell-based
Conditions: hepg2, 48 h
Measured property: Activity

Molecule	System	Observed value
COc1cc(OC)c2c(O)c3c(=O)cc(C)oc3cc2c1 [RUBROFUSARIN B]	HepG2	Toxic
COc1cc(O)c2c(=O)c3ccccc3oc2c1	HepG2	Toxic
COc1cc(O)c2c(=O)oc3cc(O)c(O)cc3c2c1	HepG2	Toxic
